tested on: HCC1954 cells; test: In vitro cell killing assay of payloads (cell proliferation, Cell-Titer-Glo); assay type: cell-based; conditions: Homo sapiens, 120 h; HCC1954 cells; Cell-Titer-Glo after five days; Table 2b; read-out: In vitro cell killing (IC50 (nM)) HCC1954
Non-standard residues stand in square brackets, D forms with d. Residues, ends and D or L forms follow the SMILES beside them. *: point of attachment. Dolaproine = CO[C@@H]([C@@H]1CCCN1)[C@@H](C)C(=O)O; Dil = CC[C@H](C)[C@H](NC)[C@@H](CC(=O)O)OC; X4 = N#CCN1[C@@H]2CC[C@@H](C2)[C@H]1C(=O)*; Phe(ol) = N[C@H](CO)Cc1ccccc1
measurement_label: IC50 (nM)
The figure you give is taken to be in nM; do not add the unit.

Ask | Lab note: need IC50 with HCC1954 cells for entry CC[C@H](C)[C@@H]([C@@H](CC(=O)N1CCC[C@H]1[C@H](OC)[C@@H](C)C(=O)N[C@@H](Cc1ccccc1)c1ncccn1)OC)N(C)C(=O)[C@@H](NC(=O)[C@@H]1[C@H]2CC[C@H](C2)N1C)C(C)C , please look it up.
Reply | 0.065

Ask | Now the same for CC[C@H](C)[C@@H]([C@@H](CC(=O)N1CCC[C@H]1[C@H](OC)[C@@H](C)C(=O)N[C@@H](Cc1ccccc1)c1cc[nH]n1)OC)N(C)C(=O)[C@@H](NC(=O)[C@@H]1[C@H]2CC[C@H](C2)N1C)C(C)C
Reply | 0.127

Ask | Same again, this time with CC[C@H](C)[C@@H]([C@@H](CC(=O)N1CCC[C@H]1[C@H](OC)[C@@H](C)C(=O)N[C@@H](Cc1ccccc1)c1nnc(-c2ccccc2)o1)OC)N(C)C(=O)[C@@H](NC(=O)[C@@H]1[C@H]2CC[C@H](C2)N1C)C(C)C
Reply | 0.075

Ask | Now the compound CC[C@H](C)[C@@H]([C@@H](CC(=O)N1CCC[C@H]1[C@H](OC)[C@@H](C)C(=O)N[C@H](CO)Cc1ccccc1)OC)N(C)C(=O)[C@@H](NC(=O)[C@@H]1[C@H]2CC[C@H](C2)N1CC#N)C(C)C [Compound 63] (X4-V[Dil][Dolaproine][Phe(ol)])
Reply | 1.64
